- System: ACHN renal
- measurement_description: NCI-60 one-dose screen, 48 h
- experimental_parameters: 10 µM unless noted
Compounds without any hit were thinned out: in the full panel of roughly 83,000, 20% have a hit. The source made the active and inactive calls. How the source made its calls: active means growth percent below 10; inactive means the rest.
# output must be one of T (active), F (inactive)

Solved cases (5 shown):
1. COc1ccc(/C=C2\CCc3ccccc3C2=O)cc1 ... F
2. CN(C)CCCNc1nn2c(=O)c3ccccc3nc2c2ccccc12 ... F
3. COC(=O)N/N=C/c1coc2ccc(Cl)cc2c1=O ... F
4. O=c1c2ccccc2c2nccn2c2cc(Cl)ccc12 ... F
5. COc1cnc2c(c1)C(=O)c1c-2n(CCCN2CCC(O)CC2)c(=O)c2cc(F)ccc12 ... T

Identify the outcome logged in this assay for the compound shown: `C/C(=C\CCc1ccoc1)CC/C=C(\C)CCCN1CCSCC1`
F

Identify the outcome logged in this assay for the compound shown: `COc1ccc(-c2nnc3c4[nH]cnc4ncn23)c(OC)c1`
F

Identify the outcome logged in this assay for the compound shown: `COC(=O)C1CCN(S(=O)(=O)c2ccc(-c3ccccc3)cc2)CC1`
F

Identify the outcome logged in this assay for the compound shown: `COc1ccc(C(=O)/C=C/c2ccc(C)cc2)cc1OC`
F

Identify the outcome logged in this assay for the compound shown: `C/C(=C\CCc1ccoc1)CC/C=C(\C)CCCN1CCOCC1`
F

###

- Test system: HT29 colon
- measurement_description: NCI-60 one-dose screen, 48 h (100 = growth as untreated, 0 = no growth, -100 = all killed)
- experimental_parameters: 10 µM unless noted
Compounds without any hit were thinned out: in the full panel of roughly 83,000, 20% have a hit.
endpoint_name: growth (%)
// units = %; emit number, no label

1. COc1ccc(C(=O)COc2cccc(/C=C3\COc4ccc5ccccc5c4C3=O)c2)cc1 ... 60.8
2. NC(=O)c1cc(Cl)ccc1NC(=O)c1ccccc1-c1ccccc1 ... 9.11
3. N#Cc1c(NC(=O)c2ccco2)[n+]([O-])c2cc(Cl)c(Cl)cc2[n+]1[O-] ... 103

Which growth is reported for this compound? `COc1ccc(N2CCN(CC(=O)N3CCN(c4nnc(-c5ccc(Cl)cc5)c(-c5ccc(Cl)cc5)n4)CC3)CC2)cc1`
40.9

Which growth is reported for this compound? `COc1cc(/C=C/C(=O)c2c(C)n([O-])c3ccc(Cl)cc3[n+]2=O)cc(OC)c1OC`
102

###

- Tested on: T-47D breast
- measurement_description: NCI-60 one-dose screen, 48 h (100 = growth as untreated, 0 = no growth, -100 = all killed)
- experimental_parameters: 10 µM unless noted
- Protocol: Growth inhibition of the T-47D human tumor cell line is measured as a screen for anti-cancer activity. Cells are grown in 96 well plates and exposed to the test compound for 48 hours. Compounds are tested at a single concentration, which is 10^-5 M for most compounds. The reported endpoint is percent growth (GI% or GIPRCNT), where numbers from 0 - 100% represent growth inhibition, and numbers from -100% - 0 represent cell death. For example, a value of 40 represents 60% growth inhibition. […]
The panel holds about 83,000 compounds, 20% with a hit somewhere; the sample as a whole holds those more often. Calls of active or inactive are those of the source. How the source made its calls: active means growth percent below 10; inactive means the rest.
endpoint_name: growth

Which growth is reported for this compound? `ICCC(c1ccccc1)(c1ccccc1)c1ccccc1`
39.2% (inactive)

Which growth is reported for this compound? `Cc1cnc2nc(-c3ccc(N(C)C)cc3)cn2c1`
89.8% (inactive)

Which growth is reported for this compound? `COc1ccc(N2CCN(CC(=O)N3CCN(c4nnc(-c5ccc(Cl)cc5)c(-c5ccc(Cl)cc5)n4)CC3)CC2)cc1`
31.6% (inactive)

Which growth is reported for this compound? `COc1cc(/C=N/NC(=O)c2ccc(C(F)(F)F)nc2Nc2ccc(Cl)cc2C)ccc1O`
33.7% (inactive)

Which growth is reported for this compound? `CCCCCc1c(C)[nH]c(/C=C2\N=C(c3ccc[nH]3)C=C2Oc2ccccc2)c1C`
-61.1% [100 µM] (active)

###

- Test system: HOP-62 NSCLC
- measurement_description: NCI-60 one-dose screen, 48 h
- experimental_parameters: 10 µM unless noted
Compounds without any hit were thinned out: in the full panel of roughly 83,000, 20% have a hit. Calls of active or inactive are those of the source. Rule for the calls: active = growth percent below 10; inactive = the rest.
# output must be one of active, inactive

Solved cases (10 shown):
1. O=C(Nc1nn2c(-c3cc(C(F)(F)F)cc(C(F)(F)F)c3)nnc2s1)C1CCCC1 ... active
2. C[C@H](C(=O)N[C@@H](Cc1ccc(-c2ccccc2)cc1)C(=O)NC1CC(C)(C)NC(C)(C)C1)c1ccc(-c2ccccc2)c(F)c1 ... active
3. CCCCCCCSc1ncnc2[nH]ncc12 ... inactive
4. O=C(Nc1nc2ccc(OC(F)(F)F)cc2s1)c1ccc(F)cc1 ... inactive
5. CCCCCCCCN(CCO)CCCCCCCC ... inactive
6. COc1cc(/C(Cl)=C/C=C/C(=O)c2c(C)[n+]([O-])c3ccc(Cl)cc3[n+]2[O-])cc(OC)c1OC ... active
7. Cc1cc(=O)oc2cc(OCCn3c(C)nn(-c4ccc(Cl)cc4)c3=O)ccc12 ... inactive
8. COc1cc(/C=C/c2cc(/C=C/c3ccc(O)c(OC)c3)n(C(=O)Cc3ccccc3)n2)ccc1O ... active
9. COc1ccc2ncccc2c1Cc1c(OC)ccc2ncccc12 ... inactive
10. Nc1ccc2c(c1)C(=O)c1cc(Cl)c(Cl)cc1-2 ... inactive

Identify the outcome logged in this assay for the compound shown: `O=C(CNc1ccc2c(c1)C(=O)c1ccccc1C2=O)Nc1ccc2c(c1)C(=O)c1ccccc1C2=O`
active

Identify the outcome logged in this assay for the compound shown: `CNNc1ncnc2c1cnn2-c1ccc(S(N)(=O)=O)cc1`
inactive

Identify the outcome logged in this assay for the compound shown: `Nc1ccc(Oc2c(F)c(F)c(Oc3ccc(N)cc3)c(F)c2F)cc1`
inactive

Identify the outcome logged in this assay for the compound shown: `COc1ccc(N2CCN(CC(=O)N3CCN(c4nnc(-c5ccc(Cl)cc5)c(-c5ccc(Cl)cc5)n4)CC3)CC2)cc1`
inactive

###

- System: DU-145 prostate
- measurement_description: NCI-60 one-dose screen, 48 h
- experimental_parameters: 10 µM unless noted
- Description: Cells are grown in 96 well plates and exposed to the test compound for 48 hours. Compounds are tested at a single concentration, which is 10^-5 M for most compounds. The reported endpoint is percent growth (GI% or GIPRCNT), where numbers from 0 - 100% represent growth inhibition, and numbers from -100% - 0 represent cell death. For example, a value of 40 represents 60% growth inhibition. A value of 0 means no net growth occurred over the course of the experiment. […]
About 83,000 compounds went through this panel and 20% of them were active in at least one assay; those are over-represented in the sample as a whole. Activity calls are given as the source filed them. The calls were made as follows: active = growth percent below 10; inactive = the rest.
# output must be one of class 1 (active), class 0 (inactive)

1) N#Cc1c(-c2ccccc2)cc(-c2ccccc2)n(CCCC(=O)O)c1=O ... class 0
2) CC1Cc2ccccc2N1C(=O)c1ccc(C(=O)c2ccccc2)cc1 (centres undefined) ... class 0
3) CCOC(=O)N1CCC(N=C2CSc3nnc(-c4cc(C(F)(F)F)cc(C(F)(F)F)c4)n3N2)CC1 ... class 0
4) CCCn1c(N)c(C(=O)CNc2ccc(I)cc2)c(=O)[nH]c1=O ... class 0
5) COc1cc(-c2n[nH]nc2-c2ccccn2)cc(OC)c1OC ... class 0
6) O=C(CN1CCN(c2ccc(Cl)cc2)CC1)N1CCN(c2nnc(-c3ccc(Cl)cc3)c(-c3ccc(Cl)cc3)n2)CC1 ... class 0

Identify the outcome logged in this assay for the compound shown: COc1cc(/C=C2\CN(C)CC3=C2Nc2nc(SC)[nH]c(=O)c2C3c2cc(OC)c(OC)c(OC)c2)cc(OC)c1OC (centres undefined)
class 1

Identify the outcome logged in this assay for the compound shown: `COP(=O)(OC)C(c1ccc(O)cc1)(c1ccc(O)cc1)c1ccc(O)cc1`
class 0

Identify the outcome logged in this assay for the compound shown: `[N-]=[N+]=NCc1ncc(-c2ccc(C(F)(F)F)cc2)c(NC2CCCCCC2)n1`
class 0

###

- Test system: HOP-62 NSCLC
- measurement_description: NCI-60 one-dose screen, 48 h (100 = growth as untreated, 0 = no growth, -100 = all killed)
- experimental_parameters: 10 µM unless noted
The panel holds about 83,000 compounds, 20% with a hit somewhere; the sample as a whole holds those more often. Active and inactive are the calls of the source. The calls were made as follows: active = growth percent below 10; inactive = the rest.
endpoint_name: growth

Which growth is reported for this compound? `CCN(CC)c1ccc(N=C2C=CC(=O)C=C2NC(C)=O)cc1`
107% (inactive)

Which growth is reported for this compound? `COc1cc(Cl)cc(-c2nn(-c3cccc(NC(=O)c4cc(C(F)(F)F)cc(C(F)(F)F)c4)c3)cc2-c2ccncc2)c1`
103% (inactive)

Which growth is reported for this compound? Cc1cn(C(C=O)OC(C=O)CO)c(=O)[nH]c1=O (stereo not given)
102% (inactive)

src = PubChem BioAssay (NCI)
